- System: MDA-N
- Run Description: NCI tumour cell line growth inhibition, 48 h
The source made the active and inactive calls. No stated cut-off is given here; in the data, active = GI50 up to about 1.1 µM and inactive = higher.
Please state which outcome applies, choosing from active, inactive

How did this test come out for COC(=O)[C@@H]1c2cc3c(c(O)c2[C@@H](OC2OC(C)C(OC)C(C)(OC)C2OC)C[C@]1(C)O)C(=O)c1c(O)cc2c(c1C3=O)O[C@H]1O[C@]2(C)[C@H](O)[C@@H](N(C)C)[C@@H]1O (some centres not stated) ?
active

How did this test come out for COc1ccc(-c2c3c([nH]c(=S)c2C#N)CC(C)(C)CC3=O)cc1 ?
inactive

How did this test come out for N=C(c1ccc2ccccc2c1)c1ccccc1Cc1ccccc1 ?
inactive

How did this test come out for Cc1ccc(S(=O)(=O)NN=C2CCCCCCCCCCC2)cc1 ?
inactive

How did this test come out for COC(=O)[C@]12CC[C@H]3CN(C(=O)OCc4ccccc4)[C@H]([C@H]31)[C@H](c1ccco1)N2 ?
inactive

How did this test come out for O=C1/C(=C/c2ccco2)NC(=S)N1CN1CCOCC1 ?
inactive

How did this test come out for CCOC(=O)/C=C(\C(=O)OCC)n1cc(C)c(=O)n(Cc2cnnn2CCCCOC(C)=O)c1=O ?
inactive

How did this test come out for O=C1O/C(=C(/Cl)c2cccc3ccccc23)c2ccccc21 ?
inactive

How did this test come out for CC(C)CC(NC(=O)C(CCI)Cc1ccccc1)C(=O)Nc1ccccc1 (configuration not stated) ?
inactive

How did this test come out for CCN(CC)c1ccc2cc(C(=O)Nc3nc(C45CC6CC(CC(C6)C4)C5)cs3)c(=O)oc2c1 ?
inactive

How did this test come out for Fc1cccc(CSc2ncnc3c2ncn3C2CCCS2)c1 (configuration not stated) ?
inactive

How did this test come out for CN(C(=O)Cc1cc(Cl)c(Cl)cc1NC(=O)CCCN)[C@H]1CCCC[C@@H]1N1CCCC1 ?
inactive

How did this test come out for O=C1c2cccnc2-c2nccc3ccnc1c23 ?
active

How did this test come out for Nc1ccc(C(=O)Nn2c(-c3ccccc3)nc3ccccc3c2=O)cc1 ?
inactive

How did this test come out for Cc1ccc(Nc2nnc(-c3ccc4c(c3)OCO4)o2)c(C)c1 ?
inactive

How did this test come out for c1cc2n(n1)CCN2 ?
inactive

How did this test come out for COc1c(C(=O)CC2c3c(cc4oc(C)cc(=O)c4c3OC)OC(=N)C2c2nc3ccccc3[nH]2)c(O)c(OC)c2occc12 (configuration not stated) ?
inactive

How did this test come out for CN1CCN(Cc2nc3cccc4c3c([n+]2[O-])-c2ccccc2-4)CC1 ?
inactive

How did this test come out for O=C1C=CC(=O)c2c(O)nc(CBr)nc21 ?
inactive

How did this test come out for CCn1c(-c2ccc(C)cc2)cs/c1=N\C(P(=O)(O)O)P(=O)(O)O ?
inactive

How did this test come out for CC(=O)NCCCCN(CCCNC(C)=O)C(=O)OCc1ccccc1 ?
inactive

How did this test come out for COC1=C(Br)[C@H](O)[C@@]2(C=C1Br)CC(C(=O)NCCCOc1c(Br)cc(C(O)CNC(C)=O)cc1Br)=NO2 (some centres not stated) ?
inactive

* * *

- System: Malme-3M
- Run Description: NCI tumour cell line growth inhibition, 48 h
Active and inactive are the calls of the source. Rule as the data show it: active = GI50 up to about 1.1 µM and inactive = higher.
Please state which outcome applies, choosing from 1 for active, -1 for inactive

How did this test come out for Cc1cc(C)c(C(=O)/C=C/c2ccccc2)c(C)c1 ?
-1

How did this test come out for CCCC(=O)O[C@H]1C=C2C[C@@]34SS[C@]5(CC6=C[C@H](OC(C)=O)[C@@H]7O[C@@H]7[C@H]6N5C3=O)C(=O)N4[C@@H]2[C@H]2O[C@H]21 ?
1

How did this test come out for O=C(OC(=C(c1ccccc1)c1ccccc1)N1CCCC1=S)C(c1ccccc1)c1ccccc1 ?
-1

How did this test come out for CN(C)C(=O)/N=c1\ss/c(=N\C(=S)N(C)C)n1-c1ccccc1 ?
-1

* * *

- System: COLO 205
- Run Description: NCI tumour cell line growth inhibition, 48 h
Activity calls are given as the source filed them. Cut-off read from the data, not from the text of the source: active = GI50 up to about 1.1 µM and inactive = higher.
Hi there, I'd appreciate the recorded GI50 for every entry that follows.

Entry under review: Cc1ccc(/C=C/C(=O)c2sc(-n3nc(-c4ccccc4)cc3-c3ccccc3)nc2C)cc1 . Reported GI50?
> 100 µM (inactive)

Entry under review: CN(C(=O)C1=CCCCCC1)c1ccccc1I . Reported GI50?
15.8 µM (inactive)

Entry under review: COC1=CC(=O)NCCN1 . Reported GI50?
41.8 µM (inactive)

Entry under review: COc1cccc(-c2[nH]c3cc4c(cc3c(=O)c2C(=O)O)OCO4)c1 . Reported GI50?
26.5 µM (inactive)

Entry under review: FC(F)(F)C1(C(F)(F)F)C2CCC3(CC(F)(F)C(F)(F)S3)C1C2 (configuration not stated) . Reported GI50?
31.5 µM (inactive)

Entry under review: Cc1ccc(Nc2n[nH]c(NS(=O)(=O)c3cc(C)c(Cl)cc3S)n2)cc1 . Reported GI50?
> 100 µM (inactive)

Entry under review: Cc1cccc(N/C(Sc2ccccc2)=C(/C(Cl)=C(Cl)Cl)[N+](=O)[O-])c1 . Reported GI50?
15.6 µM (inactive)

Entry under review: COc1ccc2c(c1)CC1Cc3cc(OC)c(OC)cc3CN1CC2 (configuration not stated) . Reported GI50?
23.7 µM (inactive)

Entry under review: O=C(NC1C(=O)NNC1c1cccc([N+](=O)[O-])c1)c1ccccc1 (configuration not stated) . Reported GI50?
> 100 µM (inactive)

Entry under review: CC(C)N(C(=O)C12C3C4C5C3C1(C#N)C5C42)C(C)C (configuration not stated) . Reported GI50?
> 100 µM (inactive)

Entry under review: CC1=Nc2ccccc2C12C(c1ccccc1)C(c1ccccc1)C(=O)N1c3ccccc3CC12 (configuration not stated) . Reported GI50?
> 100 µM (inactive)

Entry under review: CC1/C(=N/O)CC(c2ccccc2)N(N=O)C1c1ccccc1 (configuration not stated) . Reported GI50?
> 100 µM (inactive)

Entry under review: O=[N+]([O-])/C=C/c1cn(CCCCCCCCn2cc(/C=C/[N+](=O)[O-])c3ccccc32)c2ccccc12 . Reported GI50?
> 10 µM (inactive)

Entry under review: COc1ccc2nc3cccc(C(=O)NCCN(C)C)c3nc2c1 . Reported GI50?
1.75 µM (inactive)

Entry under review: C/C=C/C(C#N)O[Si](C)(C)C (configuration not stated) . Reported GI50?
> 100 µM (inactive)

Entry under review: Cc1c2c(n(CCN(C)C)c1C)NN=C(C#N)S2(=O)=O . Reported GI50?
> 100 µM (inactive)

Entry under review: O=C(O)C(Cc1ccccc1)Cc1ccccc1 . Reported GI50?
> 100 µM (inactive)

Entry under review: Nc1nc2cc(Cl)ccc2n1N . Reported GI50?
> 100 µM (inactive)

Entry under review: O=C(OC(=C(c1ccccc1)c1ccccc1)N1CCCC1=S)C(c1ccccc1)c1ccccc1 . Reported GI50?
2.21 µM (inactive)

Entry under review: O=C(NCCOC(=O)CCCCCCCCC(=O)OCCNC(=O)NC(=O)c1cn(Cc2ccccc2)c(=O)[nH]c1=O)NC(=O)c1cn(Cc2ccccc2)c(=O)[nH]c1=O . Reported GI50?
> 100 µM (inactive)

Entry under review: CC#C[C@@]1(O)CCCC[C@@H]1O . Reported GI50?
> 100 µM (inactive)

Entry under review: CN(CCCNC(=O)c1n[nH]c2c1ccc1ccccc12)CCCNC(=O)c1n[nH]c2c1ccc1ccccc12 . Reported GI50?
2.69 µM (inactive)

* * *

Hi there, I'd appreciate the recorded GI50 for every entry that follows.
- System: SF-539
- Run Description: NCI tumour cell line growth inhibition, 48 h
Activity calls are given as the source filed them. No stated cut-off is given here; in the data, active = GI50 up to about 1.1 µM and inactive = higher.

Entry under review: CCOC(=O)C1=C(c2ccccc2)N(C)c2ccccc2S1 . Reported GI50?
37.2 µM (inactive)

Entry under review: CN(CCN(C)CCN(C)C(=O)Cc1ccc(Cl)c(Cl)c1)CCN1CCCC1 . Reported GI50?
21.8 µM (inactive)

Entry under review: O=c1cc(-c2ccccc2)[nH]c2cccc(S)c12 . Reported GI50?
0.2 µM (active)

Entry under review: CC(=O)OC1COC(n2c(N)c(C#N)c(C)c(C#N)c2=S)C(OC(C)=O)C1OC(C)=O (stereo unspecified) . Reported GI50?
> 100 µM (inactive)

Entry under review: CCOC(=O)C1S(=O)(=O)OCCOS1(=O)=O . Reported GI50?
> 100 µM (inactive)

Entry under review: COC(=O)[C@@]1(Cc2ccc(OC(C)=O)cc2)Cc2cc3ccccc3n2N1 . Reported GI50?
58.7 µM (inactive)

Entry under review: Cc1ccc(C(=O)Cn2c(C(=O)/C=C/c3cccs3)nc3ccccc32)cc1 . Reported GI50?
> 100 µM (inactive)

Entry under review: CC(=O)Nc1ccc(-c2nnc(SCC(=O)Nc3cccc(C)c3)o2)cc1 . Reported GI50?
14.5 µM (inactive)

Entry under review: NC1CC(=O)c2cscc21 (stereo unspecified) . Reported GI50?
37 µM (inactive)

Entry under review: COc1ccc2[nH]c3c(C)c4ccnc(NCCCN(C)CCCNc5ccc6ncn7c8ccccc8c(=O)c5c67)c4c(C)c3c2c1 . Reported GI50?
0.132 µM (active)

Entry under review: CN1CCN(Cc2nc3cccc4c3c([n+]2[O-])-c2ccccc2-4)CC1 . Reported GI50?
25.4 µM (inactive)

Data origin, for the record: ChEMBL document CHEMBL1201862
